Origin of measurements: patent US20240400654A1

# system-name: HRgpA-6H (Porphyromonas gingivalis) (UniProt P28784)
# test-summary: ELISA, FASEBA screening, coated HRgpA-6H; variant OD over parental WT Fab OD
Catalogue of Ratio OD(Variant)/OD(WT) values
measurement-name: Ratio OD(Variant)/OD(WT)

1. KB001 parental mouse Fab FASEBA variant VH N100C (Fab, V domains shown) VH: EVQLKQSGPGLVAPSQSLSITCTVSGFSLSIYSVHWVRQPPGKGLEWLGMIWGGGSSDYNSALKSRLSISKDNSKSQVFLKMNSLQTDDTAMYYCARNGCFYAMDYWGQGTSVTVSS VL: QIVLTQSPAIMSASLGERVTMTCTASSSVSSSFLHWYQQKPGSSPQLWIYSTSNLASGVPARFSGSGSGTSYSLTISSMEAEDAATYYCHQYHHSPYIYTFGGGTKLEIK = 0.812
2. KB001 parental mouse Fab FASEBA variant VH A103K (Fab, V domains shown) VH: EVQLKQSGPGLVAPSQSLSITCTVSGFSLSIYSVHWVRQPPGKGLEWLGMIWGGGSSDYNSALKSRLSISKDNSKSQVFLKMNSLQTDDTAMYYCARNGNFYKMDYWGQGTSVTVSS VL: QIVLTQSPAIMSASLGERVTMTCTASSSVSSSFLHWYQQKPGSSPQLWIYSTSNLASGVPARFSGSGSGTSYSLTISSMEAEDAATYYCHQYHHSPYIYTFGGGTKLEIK = 0.839
3. KB001 parental mouse Fab FASEBA variant VH K64E (Fab, V domains shown) VH: EVQLKQSGPGLVAPSQSLSITCTVSGFSLSIYSVHWVRQPPGKGLEWLGMIWGGGSSDYNSALESRLSISKDNSKSQVFLKMNSLQTDDTAMYYCARNGNFYAMDYWGQGTSVTVSS VL: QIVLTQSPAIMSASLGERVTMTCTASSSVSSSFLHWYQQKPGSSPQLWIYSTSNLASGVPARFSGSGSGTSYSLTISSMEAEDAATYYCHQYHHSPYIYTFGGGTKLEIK = 0.954
